Data provenance is the supplement of paper PMC10567573.

B1: PBXIP1 (parent)
chain: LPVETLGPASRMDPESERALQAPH

Variants of: B1
Assay: protein stability index of a GFP-peptide fusion (GPS, HEK-293T) (PSI 1-6); higher = more stable;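 further: lentivirally expressed fusions sorted by FACS into six bins by GFP to DsRed ratio, PSI derived from sequencing read proportions per bin multiplied by bin number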
Details: c terminus: a fixed tail appended
attribute-measured: protein stability index

Answered examples (3):
[[record]]
change = "P23L"
attribute_measured = "protein stability index"
result = 4.49

[[record]]
change = "A22H"
attribute_measured = "protein stability index"
result = 4.76

[[record]]
change = "L1M"
attribute_measured = "protein stability index"
result = 4.43


Which protein stability index is reported for this variant? Q21S 4.45

# query: protein stability index of entry E17T 4.23

protein stability index lookup needed for P23D , thanks. 4.6

Entry under review: R11A . Reported protein stability index? 4.18
